assay text: water solubility of saccharides and sugar alcohols
readout: water solubility

Known results for compounds:
{"columns": ["item smiles", "data value"],
 "data": [
  ["OC[C@@H](O)[C@@H](O)[C@H](O)[C@@H](O)CO", "high"],
  ["O=C[C@H](O)[C@@H](O)[C@H](O)CO", "high"],
  ["O=C[C@H](O)[C@@H](O)[C@@H](O)[C@H](O)CO", "high"],
  ["Cc1occc(=O)c1O", "low"]
]}

Consider the additional compound presented here.
Name the recorded water solubility of the compound listed here: `O=C(CO)[C@@H](O)[C@H](O)[C@H](O)CO`
high

###

assay text: water solubility of saccharides and sugar alcohols

{"columns": ["item smiles", "water solubility"],
 "data": [
  ["O=C[C@H](O)[C@H](O)[C@H](O)CO", "low"],
  ["OC[C@H]1O[C@@](CO)(O[C@H]2O[C@H](CO)[C@@H](O)[C@H](O)[C@H]2O)[C@@H](O)[C@@H]1O", "high"],
  ["OC[C@@H](O)[C@H](O)[C@@H](O)CO", "high"]
]}
